- target.or.system: Corticotropin-releasing factor receptor 2/Corticotropin-releasing factor-binding protein (Homo sapiens, UniProt P24387+Q13324)
- Sequence (Q13324 whole entry): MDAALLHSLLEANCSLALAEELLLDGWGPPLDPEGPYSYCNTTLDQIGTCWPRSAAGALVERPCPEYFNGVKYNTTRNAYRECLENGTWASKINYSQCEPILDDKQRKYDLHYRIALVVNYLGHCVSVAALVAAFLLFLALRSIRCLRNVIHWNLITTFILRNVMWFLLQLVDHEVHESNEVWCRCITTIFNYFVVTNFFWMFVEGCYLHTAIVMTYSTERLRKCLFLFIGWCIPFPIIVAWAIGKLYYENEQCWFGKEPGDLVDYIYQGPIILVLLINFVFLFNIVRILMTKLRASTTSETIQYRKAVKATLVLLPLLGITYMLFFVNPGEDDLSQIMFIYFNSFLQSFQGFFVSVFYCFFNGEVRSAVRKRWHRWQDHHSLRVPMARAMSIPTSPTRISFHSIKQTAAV
- Sequence (P24387 whole entry): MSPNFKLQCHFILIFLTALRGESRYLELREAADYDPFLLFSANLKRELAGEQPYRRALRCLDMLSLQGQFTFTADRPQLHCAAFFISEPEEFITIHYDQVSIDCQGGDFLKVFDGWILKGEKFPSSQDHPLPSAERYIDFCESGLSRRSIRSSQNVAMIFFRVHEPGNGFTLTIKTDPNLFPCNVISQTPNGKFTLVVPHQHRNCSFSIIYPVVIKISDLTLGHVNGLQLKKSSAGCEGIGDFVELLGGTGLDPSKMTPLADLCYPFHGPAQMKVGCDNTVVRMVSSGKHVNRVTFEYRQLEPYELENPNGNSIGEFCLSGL
- method.description: activators of CRF receptor 2 with binding protein – uHTS hits, confirmation (AID 602473)
- Type: functional
- stated.conditions: read-out: EC50_Mean
Calls of active or inactive are those of the source.
readout.type: EC50

Please review the entries below; each comes with its answer.
>>> print(df.to_string())
                                   compound               value
0  CCOc1ccc(CCNC(=O)c2cccc(NC3=NC4CS(=O)(=O)CC4S3)c2)cc1OCC (stereo not given)  > 53 µM (inactive)
1  Cc1cccc2c(CCNC(=O)c3ccc([N+](=O)[O-])cc3)c[nH]c12  > 53 µM (inactive)
2    CCN1/C(=C\C=C(C(C)=O)C(C)=O)Sc2ccccc21     4.9 µM (active)
3  CNC(=O)c1c(NC(=O)c2ccc(S(=O)(=O)N3CCCc4ccccc43)cc2)sc2c1CCN(C)C2    6.81 µM (active)

input: Answer with reported EC50 of COc1ccc(C2C(C#N)=C(N)Oc3cc(O)ccc32)cc1C (stereo not given)
output: > 53 µM (inactive)

input: // Input: CN(C)c1ccc(C=NN2C(=O)CSC2=S)c(Cl)c1 . Output its EC50 only.
output: > 53 µM (inactive)

input: Output measured EC50 for this item: O=C(CNS(=O)(=O)c1ccc([N+](=O)[O-])cc1)N/N=C\c1ccc(O)cc1
output: 7.12 µM (active)

input: Give a short answer stating reported EC50 for CCc1cccc(C)c1NC(=S)N1CCCCC1c1cccnc1 (stereo not given) .
output: 6.05 µM (active)

input: Read off the recorded EC50 for O=c1c([N+](=O)[O-])c(NC2CCCCC2)c2ccccc2n1-c1ccccc1
output: > 53 µM (inactive)

input: Indicate its recorded EC50; the compound in question is CCCC(=O)NC(C)c1nc2ccccc2[nH]1 (stereo not given)
output: > 53 µM (inactive)

---

- System: Streptococcus
- method.description: GAS UMAA2166 growth inhibition – luminescence, BacTiterGlo, counter-screen for streptokinase expression inhibitor project, dose response (AID 1915);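 further: potency for reduction of bacterial viability or growth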
- Assay type: functional, organism-based
Calls of active or inactive are those of the source.
// reported EC50 per item

                                 mol_smiles  readout_type             value
0  CSCC[C@H](NC(=O)c1nn(C)c(=O)c2ccccc12)c1nc2ccccc2[nH]1          EC50  19.8 µM (active)

input: Identify measured EC50 corresponding to COc1ccc(N2CCN(C(=O)c3cc(C)oc3C)CC2)cc1
output: > 150 µM (not active)

input: Look up and state reported EC50 for Cc1cccnc1Nc1nc(-c2ccccn2)cs1
output: 6.4 µM (active)

input: Name the recorded EC50 of the item CN1C(=O)/C(=C/c2ccccc2F)Sc2ccc(C(=O)N3CCCC3)cc21 in your answer.
output: 2.66 µM (active)

---

- target.or.system: Prothrombin (Bos taurus, UniProt P00735)
- method.description: thrombin protease inhibitors – biochemical, fluorescence polarization, uHTS hits, dose response (AID 602369)
- Format: functional
Active and inactive are the calls of the source.
Reported IC50 values for a set of compounds

In [3]: df
Out[3]:
                                 mol_smiles             value
0  O=C(N/N=C/c1sc(N2CCOCC2)nc1-c1ccccc1)c1cccc(S(=O)(=O)N2CCCC2)c1  24.5 µM (active)

input: Answer briefly: IC50 recorded on Prothrombin (Bos taurus, UniProt P00735) for Cn1c2ccccc2c2cc(C(=O)OCC(=O)N3CC(=O)Nc4ccccc43)sc21
output: 32.4 µM (active)

input: Fill in: IC50 on Prothrombin (Bos taurus, UniProt P00735), entry Cc1cc2ncn(/N=C/c3ccc([N+](=O)[O-])o3)c2cc1C
output: 51.4 µM (active)

input: // output IC50; input COC(=O)c1ccc(NC(=O)c2ccc(NC(=O)c3ccco3)cc2)cc1 ; system Prothrombin (Bos taurus, UniProt P00735)
output: 73 µM (active)
